testTarget: T1, hu_CXCR2_N-term (1-17)-Trf (human, coupled to carrier protein human transferrin; C-terminal cysteine introduced to enable coupling)
T1 construct: Synthetic linear peptide chemically coupled to the carrier; also called CXCR2_aa1-17_TRF; N-terminal peptide aa1-17, Transferrin-coupled
T1 sequence (P02787 20-698 limits assumed): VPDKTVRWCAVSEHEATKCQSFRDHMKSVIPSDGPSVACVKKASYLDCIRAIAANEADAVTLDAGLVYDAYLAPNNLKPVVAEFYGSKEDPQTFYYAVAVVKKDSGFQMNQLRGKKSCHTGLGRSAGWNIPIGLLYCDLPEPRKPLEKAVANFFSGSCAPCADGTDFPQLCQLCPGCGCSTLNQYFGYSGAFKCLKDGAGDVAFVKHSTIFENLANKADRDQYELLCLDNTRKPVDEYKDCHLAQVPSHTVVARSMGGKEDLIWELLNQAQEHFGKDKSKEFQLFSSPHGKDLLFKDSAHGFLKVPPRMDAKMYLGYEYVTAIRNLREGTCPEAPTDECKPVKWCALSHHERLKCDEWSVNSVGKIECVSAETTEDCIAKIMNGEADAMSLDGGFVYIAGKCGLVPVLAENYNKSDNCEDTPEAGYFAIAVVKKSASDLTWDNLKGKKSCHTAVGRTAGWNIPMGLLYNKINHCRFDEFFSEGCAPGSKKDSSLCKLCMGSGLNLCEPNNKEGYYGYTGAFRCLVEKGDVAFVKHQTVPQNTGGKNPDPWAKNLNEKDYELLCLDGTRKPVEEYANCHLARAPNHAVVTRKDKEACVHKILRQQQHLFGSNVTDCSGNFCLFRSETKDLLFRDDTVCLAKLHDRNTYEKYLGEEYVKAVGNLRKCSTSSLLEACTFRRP
methodSummary: ELISA, coated peptide-TRF, Fab
// reported pEC50 for each item listed
// field semantics: pEC50 = negative decimal log of concentration (mol/L)

Look over these answered cases.
Read the entry CX2-Mab #1 (Fab format) (Fab, V domains shown) VH: QVQLVQSGAEVKKPGSSVKVSCKASGGTFSSYAISWVRQAPGQGLEWMGGIIPIVGEAKYAQKFQGRVTITADESTSTAYMELSSLRSEDTAVYYCARDSSGYDGYYAFAYWGQGTQVTVSS VL: DIVLTQPPSVSGAPGQRGTISCSGSSSNIGSSSVNWYQQLPGTAPKLLIYRNNQRPSGVPDRFSGSKSGTSASLAITGLQAEDEADYYCGATDFSANQVVFGGGTKLTVLG and write its reported pEC50.
9.00

Read the entry CX2-Mab #2 (Fab format) (Fab, V domains shown) VH: QVQLVQSGAEVKKPGASVKVSCKASGYTFSRYAMHWVRQAPGQGLEWMGVINPYNGNTRYAQKFQGRVTMTRDTSISTAYMELSRLRSEDTAVYYCARGSHIQAGAFDYWGQGTLVTVSS VL: DIQMTQSPSSLSASVGDRVTITCRASQGINNRLNWYQQKPGKAPKLLIYDGSSLQSGVPSRFSGSGSGTDFTLTISSLQPEDFATYYCQQYIHFPVTFGQGTKVEIKR and write its reported pEC50.
8.89

More entries:
Read the entry CX2-Mab #6 (Fab format) (Fab, V domains shown) VH: EVQLLESGGGLVQPGGSLRLSCAASGFTFSSYTMSWVRQAPGKGLEWVSAIHSSGSSTYYADSVKGRFTISRDNSKNTLYLQMNSLRAEDTAVYYCARVPAYYGFDHWGQGTLVTVSS VL: DIELTQPPSVSVSPGQTASITCSGDSLGAFYVHWYQQKPGQAPVLVIYRTNNRPSGIPERFSGSNSGNTATLTISGTQAEDEADYYCASYASRNRVFGGGTKLTVLG and write its reported pEC50.
9.30
